experiment: soluble on expression in E. coli; label from the status in PepcDB or PDB records

Biosequence	soluble on expression in E. coli
MCEIFIRANQRSYSVQARSLRLHGVATSVRLEQLFWDVLEEIAARDGMRVTQLIERLYDELVQYRGEAANFTSFLRVCCLRYQVLQAEGRIPADATVPIRSLDAQAVLRGLPANLYDSRPLG	soluble
SLIFGKIDYINLLPLHIYLKKYPLPNGYKASMEYKKGVPSKLNKDLFYRRIDAAIISSIESARKKYKNLDLGICANKRVLSVLVEKNTSNAKDPSSATSNALAKVLKQDGKVIIGDKALKLYLKDPSKYIDLCAKWHEKTGLPFVFARFSCVQKKALYKQILKKFPKTKIKIPYYILQKYAKTRDLDVKDVRYYLDEVIYHKISTKEKTALKRFVKACKALNLA	soluble

====

assay: soluble on expression in E. coli; label from the status in PepcDB or PDB records

Biosequence	soluble on expression in E. coli
MGHHHHHHSHMANVLCNRARLVSYLPGFCSLVKRVVNPKAFSTAGSSGSDESHVAAAPPDICSRTVWPDETMGPFGPQDQRFQLPGNIGFDCHLNGTASQKKSLVHKTLPDVLAEPLSSERHEFVMAQYVNEFQGNDAPVEQEINSAETYFESARVECAIQTCPELLRKDFESLFPEVANGKLMILTVTQKTKNDMTVWSEEVEIEREVLLEKFINGAKEICYALRAEGYWADFIDPSSGLAFFGPYTNNTLFETDERYRHLGFSVDDLGCCKVIRHSLWGTHVVVGSIFTNATPDSHIMKKLSGN	not soluble
MSLKVTFEQLKAAFNRVLISRGVDSETADACAEMFARTTESGVYSHGVNRFPRFIQQLENGDIIPDAQPKRITSLGAIEQWDAQRSIGNLTAKKMMDRAIELAADHGIGLVALRNANHWMRGGSYGWQAAEKGYIGICWTNSIAVMPPWGAKECRIGTNPLIVAIPSTPITMVDMSMSMFSYGMLEVNRLAGRQLPVDGGFDDEGNLTKEPGVIEKNRRILPMGYWKGSGMSIVLDMIATLLSDGASVAEVTQDNSDEYGISQIFIAIEVDKLIDGPTRDAKLQRIMDYVTSAERADENQAIRLPGHEFTTLLAENRRNGITVDDSVWAKIQALEGHHHHHH	soluble
MGSRIMHVIIANGIAEKLSIHDKTSFLLGAVAPDAVHSKKEKGTSHFYAGTTKNYTRRIDYDSFFHKYESHINSPFILGYYTHLIADDNWLSGFFLPWLKNRIENDETIAPLYYNDFKLLNAKLLHHYDQEQQLFSLLNQEAHIVDIEEVSKENVLAFRKYLFEDMLYPKQYLHEDLQVFTFDQIVGYIETAIEKGVFFIKQLSNEKSTSKI	not soluble
MSLGTNPFYKIKREGEISLKLKNQLFRLYFLLIYSSLENLQMADKKSPVAVGMTVTPSNQANFVDAGSTTLMNKPGEPTFKLGINLNKVEFKCTEDRKPISVNLKLHNPMAVTVSYKVRCTSADIFRVQPPLGFVKPNETVSIVIWYQNQDKKDAISKNHYFAFYHTTSDGRTARELWANSKVEGVRRLPASFLSTK	not soluble
MHAFTTERLLIRPLISEDEHFYCYQYTDKKMMRIVGEPLTQEQASAAFHRALKANNLEQDTVRTWAIVDKAANDIIGTQALSWLATRQTTKPSSSPIEQVEIGIMLATRANGKLLPEEAVSAIMEYGFKQLNIGRINAFYANKNRATQRILKKIGYIFEPCLQDNTTDNGYQYFEQHQWSGVIITQLFPEEIEIKEPTVND	not soluble
MSNNDCISTDKVDLDKKQIKKFLKQINISQLTKMIQFIDNKLLSDWDFNCLTYFDESEYPFFDINLSLICTIDHNIPINIIINFLCFVEKQYNNVPYHNTIHATMVTQKFFCLAKKLGIYDDLEYKIKLVMFISGICHDIGHPGYNNLFFVNSLHPLSIIYNDISVLENYHASITFKILQLNQCNILKNFSEKDFRMMRSYIIELILSTDMKHHFEIISKFRIRRENEDFDYIKNSDDLLILTKMIIKSADISHGSVSWSEHYCWCQRVLSEFYTQGDEELKNKMPLSPLCDRTKHNEVCKSQITFLKFVVMPLFEELSHIDNNKFIKSFCLKRLNSNCIMWDTLMKEEKTIE	soluble

====

assay: soluble on expression in E. coli; label from the status in PepcDB or PDB records

Biosequence	soluble on expression in E. coli
MMQEETFYSVRMRASMNGSHEDGGKHISGGERLIPFHEMKHTVNALLEKGLSHSRGKPDFMQIQFEEVHESIKTIQPLPVHTNEVSCPEEGQKLARLLLEKEGVSRDVIEKAYEQIPEWSDVRGAVLFDIHTGKRMDQTKEKGVRVSRMDWPDANFEKWALHSHVPAHSRIKEALALASKVSRHPAVVAELCWSDDPDYITGYVAGKKMGYQRITAMKEYGTEEGCRVFFIDGSNDVNTYIHDLEKQPILIEWEEDHDS	not soluble
GPGSMAALRYLLAPRRALVTPFLRSVTCVSSGGIFSSQRPHTFPVLWHAVRTHSNDSGERSKPLTLHVQLPCGTMRTLTAYEGQTLLDVAMEHGLPIEGACGGSCACSTCHVYLENDEAMELFDEATDEENDMLDMAFFPQSTSRLGCQLTLRQQKHDGLKISLPKATRNMYVDGHTITPHH	not soluble
MSLKRIYGSNRYETSIMVSKEGWDKSSYAVISRGDNFADALCAVPLSKKYNAPILLIGKDKLNNNLKSELKRLNVSKVFITGGEGVISKTLEGEIKNIPNIKEVKRLGGKDRYETSKLIAESVGCNGEIVVTAGTNSSDTLSISPIAANKNMPILLTAKDKNLMQKYLKSNKVNKTFVIGGEKCVSKEIENILPNVERIYGENRYETNEKIIKRFSNSLDFKNVYIALAQSQRGDEFADALSSAALAAQKNSPIILIYKDIYKNTKDILNTKLSNESIVSILGGEKLISDNILDNLAISKNEGHHHHHH	not soluble

====

test: soluble on expression in E. coli; label from the status in PepcDB or PDB records

Biosequence	soluble on expression in E. coli
MGSDKIHHHHHHLAADQDTETQEMLLVMSDLDAQGFDQRRINLTQAELYACIEWLARFHAMFAYEAFPKEDALDDASYDGLWPIGTYWHLATRPDELEVMTDSPLKNATEAIDARLNQARFQTLVHGDAKVANFCFHKEVESLGVNGVAAVDFQYVGAGIGVKDFIYLLGSCLDEAQLVTIYDAACSHYFKSLKQQLSGRWAAEQIEALVAEWSDLLPFAWADFERFLAGWQPQHHKRNGFSQDMTQRVLKALGSVR	not soluble
MIETTAALAEACTELAKSEFITIDTEFLRETTFWPELCLVQMASPTLEVLVDPLAKGIDLTPMFELMANPNVVKVFHAARQDIEIIYHLGGLIPHPIFDTQVAAMVCGFGDSISYDQLVQKIKNVQIDKSSRFTDWSRRPLTEKQLDYALADVTHLRDVYLSLKAQLEREGRSLWLTEEMNILESRDTYDMHPDDAWLRLKSRLRKPTELAILKFVAAWREREARSRNVPRSRVLKDDGIFEIAQQQPKDAEALSRLRTIPKGWERSASGTAIIETVNAALALPKEEMPKAPRHSHAPEGSGAAVELLKVLLKLTADKHGVAAKVIANSDDLDKIASEGENATVAALTGWRRELFGDVALKLINGEVALRFAGKKVEAVEVEAAASES	not soluble
MGSDKIHHHHHHMGKKNYGKSVKTRLLNLMNETGYKYMYLLARYFNERLLYRVSVSQYKDNFLLKGGSLLYAMNGLEARPTVDVDFMADRISRDRDFLARVFQEILGIVCDEDGVSFDAGSIKIEPITVEKKYPGTRFYFTAHMDTIAYNMSVDIGFGDVVIPHPTTIDFPLLLPDIPSVNIQAYSLETVIAEKFHTMIDRDVLNSRMKDFFDCYQLLTKRNLNDDALYDAIEATFDNRGLAYNPDLQLFTDSFATDRARISRWKAFLRKIQWKEALDFDTVMKAIRDRLQPMAEKYWIKLSK	not soluble
MCDSHQKEEDNANTSERALFFNYHEFSYSFYEDLGSEDAKPTEHDEDHKLCITHFPNVYAARGSAEFQVTRVVRVPRRFDESRSSLETPQFSTQLPGSEPAAIVGDDGTSFVRCGRYDIGDHVFGCSSVSPLSEYLSAAELAEVVHRVNGFLLREEGEVFGWRNLSGLLLDMLTGGLWSWVLGPLLSRPVFQESLALEQYVAQLNSPGGLLHERGVRLVLPRRSGCLSLDFVVPRPK	not soluble
MGSDKIHHHHHHMDSKSNSELARLEQAARAAWLYYVAKNTQDEIAQKLEVSRQSAQRLVALAVSEGLIKVRLDHPIVKCMELGQQLTQAFNLLECEIVPSDPADDSSVHGLAQCGAGVLERYLKSEQPKTLAFGTGRALKACIDELPSMQCPQHKIVSLLGNMMLDGSASAFDIVVSMANRVQAKHYPMPLPVIATSVAEKQLLHDLAPVKSIFELVIQADATFVGIGHMGAESPLLLDGFINQSQLTELINDNATGEIISWVYNQQGQLLDHSINELVMSSPLRIDSNKPVYGIAAGQHKVDAIFSALQGRLINSLITNEYTAERILAKLK	not soluble
MSLGATNRLACYSDPADHYSHRVRLVLAEKGVSVQLIDVDPAHLPRKLAEVNPYGSVPTLVDRDLALYESTVVMEYLEERYPHPPLMPVYPVARGNSRLLMHRIQRDWCALADTVLDPRSSEAARTEARKALRESLTGVSPLFSEFACFMSDEQSLVDCCLLPILWRLPVLGIELPRQAKPLLDYMERQFAREPFQASLSSVEREMRKLEGHHHHHH	soluble
MGSDKIHHHHHHVSENTLKPQVNKLLAALPTNDYERLIPHLKLVSLPTRQVIYEPGEPIKQVYFPQNAVVSIVTGMKDGSTVEVGIVSNEGMVGIPVILGGSTTTTKAFVQVAGSGVQIDADVLRTEFNRGGAIQNLLLRYIRATYTELTQGCACNRLHTLEERLARWLLTVSDRLESEEFPLTQEFIAQMLGVRRSGVTVAASALSRAGMISYQRGQINILNREDLEETSCECYRVIQNEFARLLKNQPKRDRR	not soluble
SLMVPVEIRWQQGGSKVYVTGSFTKWRKMIGLIPDSDNNGSFHVKLRLLPGTHRFRFIVDNELRVSDFLPTATDQMGNFVNYIEVRQPEKNPTNEKIRSKEADSMRPPTSDRSSIALQIGKDPDDFGDGYTRFHEDLSPRPPLEYTTDIPAVFTDPSVMERYYYTLDRQQSNTDTSWLTPPQLPPQLENVILNKYYATQDQFNENNSGALPIPNHVVLNHLVTSSIKHNTLCVASIVRYKQKYVTQILYTPI	soluble
MSLIAPVLKGKGVLITRAKEQASSLSRLIEEAGGVPIEVPLLSFIKTMDVYEEVGASIQSYEWIVFTSANAVRFFFNTWPRQELKKLPSIAAVGSSTQRELSRYGISVDLMPNEYVAESLVETMVKRLKPCRVLFPKGNLARPTVKVGLETNGFIVDEMTVYETKRPLEAKVMLCEAFQKHRIEIITFTSPSAVDHFVTLLDREFILHEHLLYAYIGPIAAARAKQRGLPVHIVAKTYTGEGLVNAICDFVKEDGEGHHHHHH	soluble
MDRMKIEAVIFDWAGTTVDYGCFAPLEVFMEIFHKRGVAITAEEARKPMGLLKIDHVRALTEMPRIASEWNRVFRQLPTEADIQEMYEEFEEILFAILPRYASPINAVKEVIASLRERGIKIGSTTGYTREMMDIVAKEAALQGYKPDFLVTPDDVPAGRPYPWMCYKNAMELGVYPMNHMIKVGDTVSDMKEGRNAGMWTVGVILGSSELGLTEEEVENMDSVELREKIEVVRNRFVENGAHFTIETMQELESVMEHIEKQELIIS	soluble
